Source of measurements: the supplement of paper PMC13380429

Test system: Vero E6
protocol-text: cell viability relative to DMSO; higher = less toxic
settings: 72 h; 100 nM
# reported cell viability; entries follow

Consider the following illustrative entries.
> print(dat)
                                   compound  reported.endpoint    val
1  O[C@@H](CN1CCC(Cc2ccc(F)cc2)CC1)c1ccc(Cl)cc1 (racemic)     cell viability  98.8%
2  CCNC(=O)Nc1ccc(-c2nc3c(c(N4CCOC[C@@H]4C)n2)CCN(C2COC2)C3)cc1     cell viability  94.2%
3  CC(=O)Nc1ccc(NC(=S)NC(=O)c2ccc(C(C)(C)C)cc2)cc1     cell viability   105%
4  N[C@@H](C(=O)O)c1ccc(C(=O)O)c(C(=O)O)c1 (racemic) [3,4-DCPG-(+/-)]     cell viability    96%
5  O=C1NC(=O)c2cc(Nc3ccccc3)c(Nc3ccccc3)cc21     cell viability  98.6%

Attention now turns to another entry.
Enquiry: So what cell viability did N=C(N)NCCC[C@H](N)C(=O)O get with Vero E6?
Return: 102%
